experiment: The EC50 was calculated as the concentration of drug that increased the percentage of formazan production in drug treated, virus infected cells to 50% of that produced by drug free uninfected cells on serotype 2.
Readings of pEC50 for the listed molecules
Formally, pEC50 is defined as -log10 of the concentration c, with c in mol/L.

Below, 3 molecules whose answers are already recorded.
{"chemical_smiles": "CCOC(=O)/C=C/[C@H](CCC(N)=O)NC(=O)[C@@H](CC(=O)[C@H](CC(C)C)NC(=O)SC1CCCC1)Cc1ccc(C)cc1", "pEC50": 6.00}
{"chemical_smiles": "CCOC(=O)/C=C/[C@H](CCC(N)=O)NC(=O)[C@@H](CC(=O)[C@H](CC(C)C)NC(=O)SC1CCCC1)Cc1ccc(F)cc1", "pEC50": 6.15}
{"chemical_smiles": "CCOC(=O)/C=C/[C@H](CCC(N)=O)NC(=O)[C@@H](CC(=O)[C@@H](NC(=O)SC1CCCC1)C(C)C)Cc1ccc(C)cc1", "pEC50": 6.89}

// next entry
## Input Fill in pEC50 for record CCOC(=O)/C=C/[C@H](CCC(N)=O)NC(=O)[C@@H](CC(=O)[C@@H](NC(=O)SC1CCCC1)C(C)C)Cc1ccccc1
## Output 7.00

meta.source: BindingDB's records for doi:10.1021/jm980537b
